Data provenance: ChEMBL document CHEMBL1152427

So I've got a bunch of compounds here, and I need their MIC values.
# Test system: Escherichia coli
# Assay method text: Antibacterial activity against Escherichia coli after 20 hrs by twofold serial broth dilution method
# Format: functional

Use the examples below as a reference point.
O=c1c(O)c(-c2ccc(O)cc2)oc2ccc(O)cc12 | > 1020 µM
COc1ccc(-c2coc3cc(O[C@@H]4O[C@H](CO)[C@@H](O)[C@@H](O)[C@@H]4O)cc(O)c3c2=O)cc1 | > 1020 µM

# input for lookup
According to the records, this compound "O=c1c(O)c(-c2ccccc2)oc2ccc(O)cc12" displays MIC of > 1020 µM
